List of inhibition values.
studyTarget: Tyrosine-protein phosphatase non-receptor type 11 (Mus musculus) (UniProt P35235)
assayMethodText: Percent inhibition of Tyrosine phosphatase SHP2 SH2 domain containing PTP involved in insulin uM
Parameters: concentration or dose not given beside the values
testConditions: concentration not given here

The following compounds have reported results that may help.
| compound | parameter | observedResult |
| --- | --- | --- |
| CCCCCNC(=O)C(Cc1ccc(OC(C(=O)O)C(=O)O)cc1)NC(=O)[C@H]1C[C@@H]1C(=O)O (stereo partly drawn) | inhibition | 10% |
| CCCCCNC(=O)C(Cc1ccc(OCC(=O)OC)c(C(=O)OC)c1)NC(=O)[C@H](Cc1ccccc1)NC(=O)CCC(=O)OC (stereo partly drawn) | inhibition | 0% |
| CCCCCNC(=O)C(Cc1ccc(OC(C(=O)O)C(=O)O)cc1)NC(=O)[C@H](CC(=O)O)NC(=O)OC(C)(C)C (stereo partly drawn) | inhibition | 12% |

Lab book: inhibition of CC(C)CCNC(=O)C(Cc1ccc(OC(C(=O)O)C(=O)O)cc1)NC(=O)CCC(=O)O (stereo not drawn) noted as 7%

Lab book: inhibition of CCCCCNC(=O)C(Cc1ccc(OC(CC(=O)O)C(=O)O)cc1)NC(=O)CCC(=O)O (stereo not drawn) noted as 4%

Lab book: inhibition of CCCCCNC(=O)C(Cc1ccc(OC(C(=O)O)C(=O)O)cc1)NC(=O)C1C2CCC(C2)[C@@H]1C(=O)O (stereo partly drawn) noted as 5%

Lab book: inhibition of CCCCCNC(=O)C(Cc1ccc(OCC(N)=O)c(C(=O)O)c1)NC(=O)CCC(=O)O (stereo not drawn) noted as 2%

Lab book: inhibition of O=C(O)CCC(=O)NC(Cc1ccc(OC(C(=O)O)C(=O)O)cc1)C(=O)NCc1ccc(C(F)(F)F)cc1 (stereo not drawn) noted as 15%

###

studyTarget: Tyrosine-protein phosphatase non-receptor type 11 (Mus musculus)
Sequence (whole entry): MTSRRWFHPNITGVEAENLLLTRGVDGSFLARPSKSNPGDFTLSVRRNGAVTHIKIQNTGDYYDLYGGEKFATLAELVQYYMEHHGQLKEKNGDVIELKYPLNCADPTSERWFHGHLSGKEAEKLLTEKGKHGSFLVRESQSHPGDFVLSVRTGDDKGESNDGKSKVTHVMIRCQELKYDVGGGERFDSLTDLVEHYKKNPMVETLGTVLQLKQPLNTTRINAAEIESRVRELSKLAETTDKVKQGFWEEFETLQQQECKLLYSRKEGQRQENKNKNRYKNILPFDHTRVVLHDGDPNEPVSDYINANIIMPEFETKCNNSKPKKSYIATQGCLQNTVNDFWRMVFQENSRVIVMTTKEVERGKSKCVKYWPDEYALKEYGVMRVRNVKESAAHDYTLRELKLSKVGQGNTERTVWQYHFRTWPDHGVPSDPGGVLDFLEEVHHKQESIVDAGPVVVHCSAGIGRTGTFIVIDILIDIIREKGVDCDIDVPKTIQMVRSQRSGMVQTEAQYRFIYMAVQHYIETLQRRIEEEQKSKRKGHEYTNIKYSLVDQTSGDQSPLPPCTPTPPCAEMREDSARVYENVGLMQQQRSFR
assayMethodText: Percent inhibition of Tyrosine phosphatase SHP2 SH2 domain containing PTP involved in insulin uM
Design: concentration or dose not given beside the values
testConditions: concentration not given here
List of inhibition values.
Give the value in % but do not write % after it.

The following compounds have reported results that may help.
| compound | unitTag | inhibition |
| --- | --- | --- |
| CCCCCNC(=O)C(Cc1ccc(OC(C(=O)O)C(=O)O)c(F)c1F)NC(=O)CCC(=O)O (centres undefined) | % | 23 |
| CCCCCNC(=O)C(Cc1ccc(OC(C(=O)O)C(=O)O)cc1)NC(=O)c1ccccc1C(=O)O (centres undefined) | % | 19 |
| CCCCCNC(=O)C(Cc1ccc(OC(C(=O)O)C(=O)O)cc1)NC(=O)[C@H](COc1ccc(Cc2cc(Cl)ccc2Cl)cc1)NC(=O)CCC(=O)O (some centres undefined) | % | 28 |

Please find the next compound below.
// returns inhibition for CCCCCNC(=O)C(Cc1ccc(OC(C(=O)O)C(=O)O)cc1)NC(=O)[C@H](CC(=O)O)NC(=O)OCc1ccccc1 (some centres undefined) with Tyrosine-protein phosphatase non-receptor type 11 (Mus musculus); value = 50

Ref: ChEMBL document CHEMBL1135703
